The listing below reports IC50 for molecules tested on Epidermal growth factor receptor (Homo sapiens, UniProt P00533).
Sequence (P00533 whole entry): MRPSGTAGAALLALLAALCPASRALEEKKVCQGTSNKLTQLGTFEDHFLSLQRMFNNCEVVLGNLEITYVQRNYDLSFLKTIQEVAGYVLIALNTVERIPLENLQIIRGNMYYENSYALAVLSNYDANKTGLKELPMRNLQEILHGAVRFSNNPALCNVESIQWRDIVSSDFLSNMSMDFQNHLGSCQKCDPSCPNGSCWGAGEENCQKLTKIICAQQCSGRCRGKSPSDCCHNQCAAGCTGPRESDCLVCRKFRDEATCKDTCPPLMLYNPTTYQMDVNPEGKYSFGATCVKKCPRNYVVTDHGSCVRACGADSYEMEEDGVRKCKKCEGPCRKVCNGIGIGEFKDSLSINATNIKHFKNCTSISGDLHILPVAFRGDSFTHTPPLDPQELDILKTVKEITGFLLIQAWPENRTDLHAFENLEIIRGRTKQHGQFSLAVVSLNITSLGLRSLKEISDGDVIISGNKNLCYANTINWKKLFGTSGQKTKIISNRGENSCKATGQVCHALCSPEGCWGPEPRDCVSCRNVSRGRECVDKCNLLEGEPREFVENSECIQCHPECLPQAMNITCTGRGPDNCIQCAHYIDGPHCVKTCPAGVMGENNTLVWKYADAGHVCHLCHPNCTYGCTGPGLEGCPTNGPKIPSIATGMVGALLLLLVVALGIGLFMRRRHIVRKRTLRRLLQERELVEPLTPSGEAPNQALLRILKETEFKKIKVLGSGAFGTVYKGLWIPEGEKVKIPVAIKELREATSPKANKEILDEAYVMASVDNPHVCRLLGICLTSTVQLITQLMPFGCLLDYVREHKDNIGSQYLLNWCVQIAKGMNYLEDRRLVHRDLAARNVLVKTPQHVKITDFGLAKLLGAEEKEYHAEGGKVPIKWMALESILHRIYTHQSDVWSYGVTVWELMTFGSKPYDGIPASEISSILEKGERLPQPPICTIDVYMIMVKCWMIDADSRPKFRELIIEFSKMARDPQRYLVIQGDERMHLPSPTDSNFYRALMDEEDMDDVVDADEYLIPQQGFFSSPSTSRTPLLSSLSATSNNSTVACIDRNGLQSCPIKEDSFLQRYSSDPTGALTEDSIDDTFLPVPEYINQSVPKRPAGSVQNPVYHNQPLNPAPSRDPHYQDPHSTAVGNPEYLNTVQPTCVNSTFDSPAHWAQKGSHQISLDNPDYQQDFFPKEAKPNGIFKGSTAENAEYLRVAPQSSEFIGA
Parameter: IC50 (nM)

{"columns": ["Structure notation", "Parameter", "Relation operator", "Recorded result"],
 "data": [
  ["N#CCC(=O)Nc1cccc(Oc2cc(Nc3ccc(OCc4cccc(F)c4)c(Cl)c3)ncn2)c1", "IC50", "=", 48],
  ["O=C(/C=C/c1ccccc1)Nc1cccc(Oc2cc(Nc3ccc(OCc4cccc(F)c4)c(Cl)c3)ncn2)c1", "IC50", "=", 1670],
  ["O=[N+]([O-])c1cccc(Oc2cc(Nc3ccc(OCc4cccc(F)c4)c(Cl)c3)ncn2)c1", "IC50", "=", 1200],
  ["O=C(Cc1cc(F)c(F)cc1F)Nc1cccc(Oc2cc(Nc3ccc(OCc4cccc(F)c4)c(Cl)c3)ncn2)c1", "IC50", "=", 627],
  ["Nc1cc(Nc2cccc(Oc3cc(Nc4ccc(OCc5cccc(F)c5)c(Cl)c4)ncn3)c2)ncn1", "IC50", "=", 61],
  ["Fc1cccc(COc2ccc(Nc3cc(Oc4cccc(NCc5ccccc5)c4)ncn3)cc2Cl)c1", "IC50", ">", 10000],
  ["C=CC(=O)Nc1cccc(Oc2cc(Nc3ccc(OCc4cccc(F)c4)c(Cl)c3)ncn2)c1", "IC50", "=", 37],
  ["CC(=O)Nc1cccc(Oc2cc(Nc3ccc(OCc4cccc(F)c4)c(Cl)c3)ncn2)c1", "IC50", "=", 108]
]}

----------
Target: Receptor tyrosine-protein kinase erbB-2 (Homo sapiens)
Sequence (P04626 whole entry): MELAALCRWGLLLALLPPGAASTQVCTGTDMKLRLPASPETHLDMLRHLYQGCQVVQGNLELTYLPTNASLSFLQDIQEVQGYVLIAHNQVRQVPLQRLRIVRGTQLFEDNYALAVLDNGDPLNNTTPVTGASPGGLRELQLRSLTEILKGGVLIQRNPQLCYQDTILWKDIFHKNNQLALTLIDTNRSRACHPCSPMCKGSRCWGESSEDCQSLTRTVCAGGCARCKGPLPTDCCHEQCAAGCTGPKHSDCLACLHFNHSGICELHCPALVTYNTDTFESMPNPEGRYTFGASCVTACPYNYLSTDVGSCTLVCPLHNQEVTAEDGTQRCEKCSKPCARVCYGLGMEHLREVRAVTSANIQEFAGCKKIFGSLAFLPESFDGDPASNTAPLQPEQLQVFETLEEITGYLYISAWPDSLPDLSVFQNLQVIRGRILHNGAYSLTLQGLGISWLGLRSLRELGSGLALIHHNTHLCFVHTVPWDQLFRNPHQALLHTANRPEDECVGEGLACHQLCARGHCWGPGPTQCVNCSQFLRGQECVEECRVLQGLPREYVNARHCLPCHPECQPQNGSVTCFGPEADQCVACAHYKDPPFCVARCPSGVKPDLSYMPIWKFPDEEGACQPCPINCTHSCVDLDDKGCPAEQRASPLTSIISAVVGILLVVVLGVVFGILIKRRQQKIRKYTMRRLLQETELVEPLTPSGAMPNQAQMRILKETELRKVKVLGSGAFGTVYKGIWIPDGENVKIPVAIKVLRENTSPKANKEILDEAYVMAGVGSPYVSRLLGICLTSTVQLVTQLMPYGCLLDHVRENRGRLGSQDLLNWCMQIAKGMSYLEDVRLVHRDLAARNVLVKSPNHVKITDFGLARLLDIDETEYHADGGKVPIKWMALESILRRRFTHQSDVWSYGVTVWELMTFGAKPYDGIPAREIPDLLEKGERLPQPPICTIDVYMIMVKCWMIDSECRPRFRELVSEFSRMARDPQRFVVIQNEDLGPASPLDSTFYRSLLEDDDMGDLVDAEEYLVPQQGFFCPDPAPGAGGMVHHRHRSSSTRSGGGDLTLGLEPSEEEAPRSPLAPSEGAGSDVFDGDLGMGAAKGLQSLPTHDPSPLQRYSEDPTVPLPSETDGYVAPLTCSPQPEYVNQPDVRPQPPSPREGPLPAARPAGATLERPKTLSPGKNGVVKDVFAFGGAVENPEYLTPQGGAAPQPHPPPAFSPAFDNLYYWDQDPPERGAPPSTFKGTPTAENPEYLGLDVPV
Assay: Inhibition of human ErbB2 preincubated for 2 hrs prior addition of ATP by HTRF assay
Reported log10 IC50 values follow for various compounds
Parameter: log10 IC50 (log10 of the value in nM)

{"columns": ["Structure notation", "log10 IC50"],
 "data": [
  ["O=C(/C=C/c1ccc(F)cc1)Nc1cccc(Oc2cc(Nc3ccc(OCc4cccc(F)c4)c(Cl)c3)ncn2)c1", 3.11],
  ["CC(=O)Nc1cccc(Oc2cc(Nc3ccc(OCc4cccc(F)c4)c(Cl)c3)ncn2)c1", 2.13],
  ["O=[N+]([O-])c1cccc(Oc2cc(Nc3ccc(OCc4cccc(F)c4)c(Cl)c3)ncn2)c1", 3.38],
  ["C=CC(=O)Nc1cccc(Oc2cc(Nc3ccc(OCc4cccc(F)c4)c(Cl)c3)ncn2)c1", 1.46],
  ["O=C(COc1cc(F)c(F)c(F)c1)Nc1cccc(Oc2cc(Nc3ccc(OCc4cccc(F)c4)c(Cl)c3)ncn2)c1", 3.33]
]}
